Test system: Plasmodium falciparum
Assay: GSK_TCMDC: Inhibition of Plasmodium falciparum 3D7 in whole red blood cells, using parasite LDH activity as an index of growth. Test compounds present at 2uM
Format: functional
observedProperty: Inhibition (%)
Answers are plain numbers, in %.

Could I get Inhibition for every one of these entries?
1. COc1ccc2c(c1)ncn2-c1cc(OCc2ccncc2Br)c(C(N)=O)s1
2. CCCc1cn2c3c(cc(C(=O)N[C@@H](Cc4ccccc4)[C@H](O)CNC4CCCCC4)cc13)N(CC)S(=O)(=O)CC2.O=CO
3. Cc1ccc2[nH]c3ccccc3c(=O)c2c1
4. O=C(O)C(F)(F)F.S=C(Nc1cccc(Cl)c1)NC1CCN(c2ccnc3cc(Cl)ccc23)C1 (stereo unspecified)
5. Cl.Clc1cccnc1N1CCN(c2ncccc2Cl)CC1
6. O=C(O)C(F)(F)F.Oc1ccc(CCNc2nc(NCCCOc3ccccc3-c3cccnc3)nc(N3CCNCC3)n2)cc1

## Result
1: 95; 2: 98; 3: 93; 4: 100; 5: 97; 6: 92

----------
Tested on: Plasmodium falciparum
Test: GSK_TCMDC: Inhibition of Plasmodium falciparum 3D7 in whole red blood cells, using parasite LDH activity as an index of growth. Test compounds present at 2uM
Format: functional
observedProperty: Inhibition (%)
Numbers only, in %.

The following compounds have reported results that may help.
compound: Cc1cc(N2CCCC2)nc(Nc2ccc(NC(=O)c3ccc(Br)o3)cc2)n1
experimentalTarget: Plasmodium falciparum
result: 99
//
compound: CCCCCCCCCc1c(C)[nH]c2ccccc2c1=O
experimentalTarget: Plasmodium falciparum
result: 97
//
compound: COc1ccccc1/C=C/C(=O)NC1CCC(CCN2CCc3ccc(-c4cc(C)no4)cc3CC2)CC1.Cl (stereo not given)
experimentalTarget: Plasmodium falciparum
result: 95
//
compound: O=C(O)C(F)(F)F.Oc1ccc(CCNc2nc(NCc3ccccc3-c3ccc(F)cc3)nc(N3CCNCC3)n2)cc1
experimentalTarget: Plasmodium falciparum
result: 92

For every item below, please supply its Inhibition.
1. Cc1c(Cl)cccc1S(=O)(=O)Nc1ccc(CCN2CCC(N)CC2)cc1.Cl
2. COc1ccc2nccc([C@@H](O)CN3CCC(NC/C=C/c4cccnc4)CC3)c2c1.CS(=O)(=O)O
3. CC(Oc1c(C2CCN(CCCCNC(=O)c3ccc(-c4ccc(Cl)cc4)cc3)CC2)ccc2c1CCCC2)C(N)=O (stereo not given)
4. CC(O)C1CCCCN1C(=O)c1ccc(-c2ccc(-c3nc4ccccc4[nH]3)s2)cc1 (stereo not given)
5. N#Cc1ccc(N2CCN(Cc3cccc(-c4cccc(-c5nc6cc(F)ccc6[nH]5)c4)c3)CC2)nc1.O=C(O)C(F)(F)F
6. O=C(Nc1ccc(Oc2ccccc2)cc1)N[C@H]1CCN(Cc2ccc(OCCCN3CCCCC3)cc2)C1

## Result
[90, 100, 99, 100, 90, 100]

----------
Test system: Plasmodium falciparum
Assay: GSK_TCMDC: Inhibition of Plasmodium falciparum 3D7 in whole red blood cells, using parasite LDH activity as an index of growth. Test compounds present at 2uM
Format: functional
observedProperty: Inhibition (%)
Give bare numbers, in %.

Reference set (4 entries):
smilesText: Cc1[nH]c(C)c(-c2ccc(OCc3ccc(OC(F)(F)F)cc3)nc2)c(=O)c1Cl
valueUnit: %
Inhibition: 98

smilesText: CC(=O)Nc1ccc(C#Cc2ccc(-c3c(C)[nH]c(C)c(Cl)c3=O)cc2)cc1
valueUnit: %
Inhibition: 90

smilesText: COC(=O)c1cccc(CNCc2cccc(-c3cccc(-c4nc5cc(F)ccc5[nH]4)c3)c2)c1.O=C(O)C(F)(F)F
valueUnit: %
Inhibition: 100

smilesText: Nc1c2c(nc3ccc(C(=O)Nc4ccc(Br)cc4)cc13)CCCC2
valueUnit: %
Inhibition: 100

Kindly give each listed record's Inhibition.
1. CCOC(=O)C(=CNc1ccc(Cc2cnc(N)nc2N)cc1CC)C(=O)OCC
2. CCOC(=O)c1c(C)noc1Nc1cccc(C)c1C

## Result
[87, 98]

----------
Test system: Plasmodium falciparum
Assay: GSK_TCMDC: Inhibition of Plasmodium falciparum 3D7 in whole red blood cells, using parasite LDH activity as an index of growth. Test compounds present at 2uM
Format: functional
observedProperty: Inhibition (%)
Give bare numbers, in %.

Worked cases, answers included:
compound: O=C(O)C1Cc2c([nH]c3ccccc23)C(c2ccc(Cl)cc2Cl)N1 (centres undefined)
Inhibition / %: 91
//
compound: Fc1ccccc1COc1ccc(Nc2ncnc3ccc(I)cc23)cc1Cl
Inhibition / %: 90
//
compound: O=C(Nc1ccc(Cl)cc1)Nc1cccc(-c2cccc(-c3nc4cc(C(F)(F)F)ccc4[nH]3)c2)c1
Inhibition / %: 99

I would be grateful if you could provide Inhibition for each of the following entries.
1. CN(C)CCN(C)Cc1cccc(-c2ccc3c(Nc4ccc(F)cc4Cl)ccnc3c2)c1
2. Cc1cccc2nc(-c3cccc(-c4cccc(NC(=O)NCc5ccccc5)c4)c3)[nH]c12
3. Cc1cnc(-c2ccc(NC(=O)c3coc4ccc(N5CC(C)N(C)C(C)C5)cc34)cc2)o1.Cl (centres undefined)
4. COc1cc2ncnc(Nc3ccc(OCc4ccccc4)c(C(F)(F)F)c3)c2cc1OC.Cl
5. CCCCNC(=O)[C@H](CC1CCCCC1)NC(=O)c1ccc(O)c(-c2ccc(OC)cc2)c1

## Result
1. 100
2. 94
3. 96
4. 100
5. 89

## Task Give Inhibition (Plasmodium falciparum) of the following compound: CN(C)C(CNC(=O)c1cc(-c2ccncc2)c(-c2ccc(NC(=O)Nc3cccc(Cl)c3)cc2)o1)c1ccccc1.O=C(O)C(F)(F)F (centres undefined)
## Result 100

----------
System: Plasmodium falciparum
Assay: GSK_TCMDC: Inhibition of Plasmodium falciparum Dd2 in whole red blood cells, using parasite LDH activity as an index of growth. Test compounds present at 2uM
Assay type: functional
I'd be grateful if you could share measured Inhibition for these entries.

molecule: Nc1ccc(Oc2ccc(Cc3cnc(N)nc3N)cc2)cc1
observedProperty: Inhibition
result: 5%
--
molecule: Cl.N=c1n(Cc2ccccc2)c2ccccc2n1CC(O)c1ccc(Cl)cc1 (stereo not drawn)
observedProperty: Inhibition
result: 75%
--
molecule: CN1CCCCC1CCc1cc(C(=O)Nc2ccc(-c3ccc(O)cc3)cc2)ccc1O (stereo not drawn)
observedProperty: Inhibition
result: 11%
--
molecule: CCN(CCCN1CCCCC1)c1cc(C)nc(Nc2ccc(C)c(Cl)c2)n1.O=C(O)C(F)(F)F
observedProperty: Inhibition
result: 100%
--
molecule: O=C(O)C(F)(F)F.O=C1CCCN1CCCNCc1ccc(-c2cccc(-c3nc4cc(F)ccc4[nH]3)c2)cc1
observedProperty: Inhibition
result: 8%
--
molecule: COc1cccc(CNC(=O)c2cccc(-c3ccc(CN4CCC(N5CCCC5)CC4)cc3)n2)c1.O=C(O)C(F)(F)F
observedProperty: Inhibition
result: 76%
--
molecule: O=C(Nc1ccc(Cl)c(-c2nc3ccccc3[nH]2)c1)c1ccc(-c2ccc(Cl)cc2)o1
observedProperty: Inhibition
result: 22%
--
molecule: Cc1nc(NCc2ccccc2)cc(Nc2cc(NCc3ccccc3)nc(C)n2)n1
observedProperty: Inhibition
result: 32%

Record Inhibition for all entries; do not skip any.
1. CS(=O)(=O)N1CC2(CCN(CCC(NC(=O)NCc3ccc(Cl)c(Cl)c3)c3ccc(Cl)c(Cl)c3)CC2)c2ccccc21 (stereo not drawn)
2. COc1ccc2ncc(F)c(NC(=O)C3CCC(NCc4cc5cc(F)cc(F)c5[nH]4)CC3)c2n1.Cl (stereo not drawn)
3. Cc1ccc2c(OCCN3CCC(Cc4cc5c(cc4F)OCC(=O)N5)CC3)cc(F)cc2n1.Cl
4. CCN(CC)CCN(Cc1ccc(-c2ccc(C(F)(F)F)cc2)cc1)C(=O)Cn1c(CCC2CCCCC2)nc(=O)c2ccccc21.O=C(O)C(O)C(O)C(=O)O

## Result
1. 59%
2. 15%
3. 71%
4. 25%

Kindly give each listed record's Inhibition.
1. COc1ccc(-c2nnc(Sc3ccc(C#N)c([N+](=O)[O-])c3)n2CC(C)C)cc1
2. Cc1cc(NC(=O)c2ccco2)ccc1OC1CCN(Cc2ccc(C#N)cc2)CC1.O=C(O)C(F)(F)F
3. Cc1[nH]c2ccc(-c3ccccc3)cc2c(=O)c1Br
4. Cc1cc(N2CCC(NS(=O)(=O)c3cccc4cccnc34)CC2)nc(Nc2cccc(C#N)c2)n1.O=C(O)C(F)(F)F
5. Cc1cc(-c2ccc(CN3Cc4ccccc4C3)cc2)ccc1S(=O)(=O)NCCN1CCCC1.O=C(O)C(F)(F)F
6. Cc1cc(=O)c(-c2ccc(Oc3ccc(Cl)cc3Cl)cc2)c(C)[nH]1
7. O=[N+]([O-])c1cccc(NC(=S)N2CCCN(Cc3ccc(F)cc3F)CC2)c1

## Result
78%
89%
97%
87%
10%
73%
98%

Batch lookup, Inhibition per entry.
1. O=C1SC(=Cc2ccc(O)c(O)c2)C(=O)N1c1ccccc1
2. Cc1cc(O)c(CN(C)Cc2ccc(N(C)C)cc2)cc1C(C)C
3. Cc1ccc(CN2CCN(Cc3cccc(NC(=O)c4cccs4)c3)CC2)cc1C.O=C(O)C(F)(F)F
4. COc1ccccc1C(C)NCC(=O)Nc1cc(C(F)(F)F)ccc1Cl (stereo not drawn)
5. COc1ccc2[nH]ccc(=NN=Cc3cccc(C)n3)c2c1

## Result
17%
98%
68%
85%
99%

Hi team, please reply with Inhibition for each item in this list.
1. O=C(Nc1cccc(N2CCC(NCCCc3ccncc3)CC2)c1)c1cccc(C(F)(F)F)c1
2. COc1ccccc1CCNc1nc(C)cc(N[C@@H](CC(C)C)C(=O)NCCc2ccccc2)n1.O=C(O)C(F)(F)F
3. CC(=O)c1c(C)[nH]c(C(=O)Nc2ccc(-c3nc4ccc(C)cc4s3)cc2)c1C
4. Clc1ccc(-c2ccc(CNCCCN3CCCC3)cc2)cc1

## Result
1. 50%
2. 81%
3. 40%
4. 21%
